// data source = PubChem BioAssay AID449762

ASSAY TEXT: M. tuberculosis growth inhibition, HTS (AID 449762);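 also: bacterial growth assessed after seven days of incubation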
TEST PARAMETERS: M. tuberculosis H37Rv growth inhibition, 7H9 media; at 25 µM; active compounds read high
About 1,900 (0.58%) of roughly 330,000 compounds were called active. Not shown: some 4% with an inconclusive outcome. The list is a sample of the results. Measured potencies and affinities stand elsewhere.
Recorded inhibition values for a group of molecules are listed next.
VALUE TYPE: inhibition (%)

>>> value_reported("CC(C)c1nc2ccc(Br)cn2c1NC1CCCC1")
-4.28
>>> value_reported("O=C(COC(=O)COc1ccccc1)Nc1cccc([N+](=O)[O-])c1")
-0.12
>>> value_reported("Cc1ccc(C(=O)Nc2cnc3sc(C)nn3c2=O)cc1")
-8.53
>>> value_reported("CCOC(=O)[C@H]1[C@H]2COc3ccc(OC)cc3[C@@H]2N2C(=O)c3ccccc3NC(=O)[C@@]12C")
3.81
>>> value_reported("Cn1c(SCC(=O)NCC2CCCO2)ncc(C(=O)Nc2ccc(F)cc2)c1=O (stereo not drawn)")
67.5
>>> value_reported("CC(NC(=O)CSC(=S)N1CCCC1)c1ccc(S(N)(=O)=O)cc1 (stereo not drawn)")
-7.22
>>> value_reported("O=C(c1ccc(F)cc1)C(CCCCCC(CN1CCOCC1)C(=O)c1ccc(F)cc1)CN1CCOCC1 (stereo not drawn)")
2
>>> value_reported("CCOc1ccc(C2/C(=C(/O)c3ccc(S(=O)(=O)N4CCCCC4)cc3)C(=O)C(=O)N2CCCOC)cc1OC (stereo not drawn)")
-12.5
>>> value_reported("Cc1cc(CC(C)C)n(-c2nc3ccccc3c(=O)n2OCc2ccccc2)n1")
58.9
>>> value_reported("Cc1ccc(NC(=O)CSc2nc(=O)n(CCN3CCOCC3)c3c2CCCC3)cc1")
-2.61
>>> value_reported("C/C(=N\\Nc1ccc([N+](=O)[O-])cc1)c1ccc(N)cc1")
-12.2
>>> value_reported("O=C(NCc1ccco1)c1ccc(-c2ccccc2Cl)o1")
-1.96
>>> value_reported("O=C(Nc1ccccc1C(=O)O)c1cc(S(=O)(=O)N2CCCCC2)c(Cl)cc1Cl")
-1.16
>>> value_reported("O=C(COC(=O)/C=C/c1cccc(Br)c1)NC1CCCCC1")
1.15
>>> value_reported("O=C(/C=C/c1cccnc1)c1ccc(O)cc1")
2.21
>>> value_reported("COc1ccccc1CSc1ncc(-c2ccc([N+](=O)[O-])cc2)[nH]1")
-2.06
>>> value_reported("COc1cc(C(=O)/C=C/c2cccnc2)ccc1O")
52.2
>>> value_reported("Cc1cc2c(nn1)CCc1c-2no[n+]1[O-]")
-1.95
>>> value_reported("COc1cc(OC)nc(Oc2cc(/C=N/O)ccc2OC)n1")
6.12
>>> value_reported("CCOc1ccccc1N(CC(=O)Nc1cccc2ccccc12)S(C)(=O)=O")
-0.92
>>> value_reported("COc1ccc(CNC(=O)Nc2ccc(C)c(C)c2)cc1")
-5.48
>>> value_reported("O=C(NCCCc1ccc(F)cc1)C1CCC(=O)N(CCCN2CCCC2=O)C1 (stereo not drawn)")
11.4
>>> value_reported("CN(C)CCCN(C(=O)c1ccc(S(=O)(=O)N2CCc3ccccc32)cc1)c1nc2ccc(Cl)cc2s1")
6.05
